From: BindingDB's records for patent US9675571

# target or system: UniProt P14902
# Sequence (P14902 whole entry): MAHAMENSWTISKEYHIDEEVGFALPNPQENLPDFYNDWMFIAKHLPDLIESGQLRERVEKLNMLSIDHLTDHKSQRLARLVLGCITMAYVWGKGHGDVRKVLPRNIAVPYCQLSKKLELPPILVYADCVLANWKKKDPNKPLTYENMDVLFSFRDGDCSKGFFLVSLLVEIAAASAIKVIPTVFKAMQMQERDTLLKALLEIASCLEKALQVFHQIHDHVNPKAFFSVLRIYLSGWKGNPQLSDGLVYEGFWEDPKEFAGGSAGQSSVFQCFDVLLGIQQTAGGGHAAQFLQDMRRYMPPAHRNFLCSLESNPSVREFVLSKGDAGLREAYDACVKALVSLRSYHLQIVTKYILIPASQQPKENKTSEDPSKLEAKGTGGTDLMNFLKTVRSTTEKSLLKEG
# assay details: IDO Kynurenine Assay
# cond: 25 °C
# Procedure: Human IDO1/HEK293 cells were seeded at 10,000 cells per 50 uL per well with RPMI/phenol red free media contains 10% FBS in a 384-well black wall clear bottom tissue culture plate (Matrix Technologies LLC) 125 nL of certain concentration of compound was then added to each well using ECHO liquid handling systems. The cells were incubated for 20 hours in 37° C. incubator with 5% CO2. […] The absorbance at 490 nm was measured on Envision plate reader.
pEC50: −log10 of the molar value.
quantity name: pEC50

smiles input	readout value
Cc1cc(NC(=O)Nc2cc([C@H]3C[C@H]3C(=O)O)ccc2N(CC(C)C)C2CCCCC2)on1	9.30
